Tested on: S. aureus Newman;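 note: first quartile when negative (synergy) and third quartile when positive (antagonism)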
Procedure Summary: Bliss interaction score (quartile over a dose matrix) (fitness difference); higher = more antagonism (negative = synergy)

Molecule | Tgt | Bliss interaction score
Clc1ccc(COC(Cn2ccnc2)c2ccc(Cl)cc2Cl)c(Cl)c1 (stereo not drawn) [Miconazole] + CO[C@@]12[C@H](COC(N)=O)C3=C(C(=O)C(C)=C(N)C3=O)N1C[C@@H]1N[C@@H]12 [MitomycinC] | S. aureus Newman | -0.188
CN(N=O)C(=O)N[C@@H](C=O)[C@@H](O)[C@H](O)[C@H](O)CO [Streptozotocin] + COc1cc(Cc2cnc(N)nc2N)cc(OC)c1OC [Trimethoprim] | S. aureus Newman | -0.12
CC1=C(C(=O)O)N2C(=O)[C@@H](NC(=O)[C@H](N)c3ccccc3)[C@H]2SC1 [Cephalexin] + O=C(N[C@H](CO)[C@H](O)c1ccc([N+](=O)[O-])cc1)C(Cl)Cl [Chloramphenicol] | S. aureus Newman | 0.0789
CC[C@H]1OC(=O)[C@H](C)[C@@H](O[C@H]2C[C@@](C)(OC)[C@@H](O)[C@H](C)O2)[C@H](C)[C@@H](O[C@@H]2O[C@H](C)C[C@H](N(C)C)[C@H]2O)[C@](C)(O)C[C@@H](C)CN(C)[C@H](C)[C@@H](O)[C@]1(C)O [Azithromycin] + N[C@@H]1CONC1=O [CycloserineD] | S. aureus Newman | 0.0743
Clc1ccc(COC(Cn2ccnc2)c2ccc(Cl)cc2Cl)c(Cl)c1 (stereo not drawn) [Miconazole] + CC[C@H]1OC(=O)[C@H](C)C(=O)[C@H](C)[C@@H](O[C@@H]2O[C@H](C)C[C@H](N(C)C)[C@H]2O)[C@](C)(OC)C[C@@H](C)C(=O)[C@H](C)[C@H]2N(CCCCn3cnc(-c4cccnc4)c3)C(=O)O[C@]12C [Telithromycin] | S. aureus Newman | 0.0508
CC[C@H]1OC(=O)[C@H](C)[C@@H](O[C@H]2C[C@@](C)(OC)[C@@H](O)[C@H](C)O2)[C@H](C)[C@@H](O[C@@H]2O[C@H](C)C[C@H](N(C)C)[C@H]2O)[C@](C)(O)C[C@@H](C)CN(C)[C@H](C)[C@@H](O)[C@]1(C)O [Azithromycin] + CC1=C(C(=O)O)N2C(=O)[C@@H](NC(=O)[C@H](N)c3ccccc3)[C@H]2SC1 [Cephalexin] | S. aureus Newman | 0.0763
Clc1ccc(COC(Cn2ccnc2)c2ccc(Cl)cc2Cl)c(Cl)c1 (stereo not drawn) [Miconazole] + CN(N=O)C(=O)N[C@@H](C=O)[C@@H](O)[C@H](O)[C@H](O)CO [Streptozotocin] | S. aureus Newman | 0.0421
C[n+]1ccc(-c2cc[n+](C)cc2)cc1 [Paraquat] + Oc1cc(Cl)ccc1Oc1ccc(Cl)cc1Cl [Triclosan] | S. aureus Newman | -0.0576
CC[C@H]1OC(=O)[C@H](C)[C@@H](O[C@H]2C[C@@](C)(OC)[C@@H](O)[C@H](C)O2)[C@H](C)[C@@H](O[C@@H]2O[C@H](C)C[C@H](N(C)C)[C@H]2O)[C@](C)(O)C[C@@H](C)CN(C)[C@H](C)[C@@H](O)[C@]1(C)O [Azithromycin] + COc1ccc(C[C@H](N)C(=O)N[C@H]2[C@@H](O)[C@H](n3cnc4c(N(C)C)ncnc43)O[C@@H]2CO)cc1 [Puromycin] | S. aureus Newman | -0.0828
CC1=C(C(=O)O)N2C(=O)[C@@H](NC(=O)[C@H](N)c3ccccc3)[C@H]2SC1 [Cephalexin] + CC(=O)O[C@H]1C[C@@]2(C)[C@@H](C[C@@H](O)[C@H]3[C@@]4(C)CC[C@@H](O)[C@@H](C)[C@@H]4CC[C@@]32C)/C1=C(\CCC=C(C)C)C(=O)O [Fusidic acid] | S. aureus Newman | 0.0547
CC[C@H]1OC(=O)[C@H](C)[C@@H](O[C@H]2C[C@@](C)(OC)[C@@H](O)[C@H](C)O2)[C@H](C)[C@@H](O[C@@H]2O[C@H](C)C[C@H](N(C)C)[C@H]2O)[C@](C)(O)C[C@@H](C)CN(C)[C@H](C)[C@@H](O)[C@]1(C)O [Azithromycin] + CN1C2=CC=CC=C2N=C3C1=CC=CC3=O [Pyocyanin] | S. aureus Newman | 0.0847
Cn1c2cccc(=O)c-2nc2ccccc21 [Pyocyanin] + CN(N=O)C(=O)N[C@@H](C=O)[C@@H](O)[C@H](O)[C@H](O)CO [Streptozotocin] | S. aureus Newman | -0.0417
O=C(O)[C@H]1/C(=C/CO)O[C@@H]2CC(=O)N21 [Clavulanic] + COc1cc(Cc2cnc(N)nc2N)cc(OC)c1OC [Trimethoprim] | S. aureus Newman | 0.221
